// data source = patent US20250282736A1

Target: hPXR (Homo sapiens (Human))
Assay: hPXR binding assay
Conditions: read-out: Binding (IC50/μM); hPXR binding assay
endpoint name: IC50 (µM)

molecule: COc1ccc(OC)c(-n2nnc(C(=O)Nc3cc(N4C(=O)CCC4=O)cc(C(C)(C)C)c3)c2C)c1
value units: µM
IC50: 0.57
//
molecule: CCC(C)Oc1ccc(C(C)(C)C)cc1NC(=O)c1nnn(-c2cc(OC)ccc2OC)c1C (centres unmarked)
value units: µM
IC50: 0.0044
//
molecule: CCCCOc1ccc(C(C)(C)C)cc1NC(=O)c1nnn(-c2cc(C(F)(F)F)ccc2OC)c1C
value units: µM
IC50: 0.059
//
molecule: CCC[C@H](CC)Oc1ccc(C(C)(C)C)cc1NC(=O)c1nnn(-c2cc(Cl)c(Cl)cc2OC)c1C
value units: µM
IC50: 0.23
//
molecule: CCCCOc1ccc(C(C)(C)C)cc1NC(=O)c1nnn(-c2cc(OC)ccc2F)c1C
value units: µM
IC50: 0.053

(I) CCCCOc1cc(NC(=O)c2nnn(-c3cc(C)ccc3OC)c2C)cc(C(C)(C)C)c1
(II) CCc1cccc(NC(=O)c2nnn(-c3cc(OC)ccc3OC)c2C)c1
(III) CCC[C@H](CC)Oc1ccc(C(C)(C)C)cc1NC(=O)c1nnn(-c2cc(OC)ccc2OC)c1C
Query block: List by increasing IC50. To answer, arrange all of the labels according to the requested order.
Result block: III, I, II

----------
Target: hPXR (Homo sapiens (Human), UniProt O75469)
Sequence (O75469 whole entry): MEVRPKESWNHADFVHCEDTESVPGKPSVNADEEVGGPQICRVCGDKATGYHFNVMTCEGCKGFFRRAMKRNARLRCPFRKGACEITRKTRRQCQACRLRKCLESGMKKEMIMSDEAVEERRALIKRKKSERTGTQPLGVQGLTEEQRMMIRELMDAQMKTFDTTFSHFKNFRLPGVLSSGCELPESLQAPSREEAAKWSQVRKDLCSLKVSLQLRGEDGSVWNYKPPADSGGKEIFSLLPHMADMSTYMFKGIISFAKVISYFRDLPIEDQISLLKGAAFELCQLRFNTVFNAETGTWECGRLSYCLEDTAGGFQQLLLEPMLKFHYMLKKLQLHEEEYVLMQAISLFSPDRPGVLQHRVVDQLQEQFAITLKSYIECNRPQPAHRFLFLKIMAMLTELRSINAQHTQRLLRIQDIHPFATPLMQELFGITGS
Test: cell-based hPXR inverse agonistic assay
This section presents molecules with their documented IC50 values.

Some solved cases for reference:
molecule: COc1ccc(OC)c(-n2nnc(C(=O)Nc3cc(OCC(=O)O)cc(C(C)(C)C)c3)c2C)c1
measured on: hPXR (Homo sapiens (Human), UniProt O75469)
measurement: > 30 µM
--
molecule: COc1ccc(OC)c(-n2nnc(C(=O)Nc3cc(C(C)(C)C)ccc3OCCOCCOCCOCCO)c2C)c1
measured on: hPXR (Homo sapiens (Human), UniProt O75469)
measurement: 0.43 µM
--
molecule: CCCCOc1ccc(C(C)(C)C)cc1NC(=O)c1nnn(-c2cc(OC)cc(OC)c2)c1C
measured on: hPXR (Homo sapiens (Human), UniProt O75469)
measurement: > 30 µM
--
molecule: CCCCOc1ccc(C(C)(C)C)cc1NC(=O)c1nnn(-c2cc(C(F)(F)F)ccc2OC)c1C
measured on: hPXR (Homo sapiens (Human), UniProt O75469)
measurement: > 30 µM

Query block: Give the reported IC50 for COc1ccc(OC)c(-n2nnc(NS(=O)(=O)c3ccc(C(C)(C)C)cc3)c2C)c1 (system: hPXR (Homo sapiens (Human), UniProt O75469)).
Result block: > 30 µM

Query block: Give the reported IC50 for COc1cc(NC(=O)c2nnn(-c3cc(Cl)ccc3OC)c2C)cc(C(C)(C)C)c1 (system: hPXR (Homo sapiens (Human), UniProt O75469)).
Result block: 0.18 µM

Query block: Give the reported IC50 for CCCC(CC)Oc1ccc(C(C)(C)C)cc1NC(=O)c1nnn(-c2cc(Cl)ccc2OC)c1C (stereo not drawn) (system: hPXR (Homo sapiens (Human), UniProt O75469)).
Result block: > 30 µM

Query block: Give the reported IC50 for COc1ccc(Cl)cc1-n1nnc(C(=O)Nc2cc(N)cc(C(C)(C)C)c2)c1C (system: hPXR (Homo sapiens (Human), UniProt O75469)).
Result block: 3.62 µM

Query block: Give the reported IC50 for CCCCOc1ccc(C(C)(C)C)cc1NC(=O)c1nnn(-c2cc(OC)ccc2F)c1C (system: hPXR (Homo sapiens (Human), UniProt O75469)).
Result block: > 30 µM
